Tested on: Rh18 complex spheroid viability, percent test/control
method notes: Anticancer human tumor Rh18 cell line growth inhibition [Asc];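 also: spheroids exposed to compound for 7 days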
reported conditions: curve of first compound; second compound 0.1 µM
Description: Multicellular complex tumor spheroid response to apoptosis pathway targeting inhibitors Alrizomadlin, Pelcitoclax, and Dasminapant in combination with a variety of drugs and investigational agents in selected tumor cell lines […] Compounds. […] If the clinical Cmax for an agent had not been determined, the highest concentration tested was 10 microM. […]
pIC50: −log10 of the molar value.
attribute measured: pIC50

Study these solved cases before continuing.
{"columns": ["compound", "measurement"],
 "data": [
  ["C=C(F)C(=O)N1CCN(c2nc(OCC3CCCN3C)nc3c2CCN(c2cccc4cccc(Cl)c24)C3)CC1CC#N (configuration not stated) + CNC(C)C(=O)NC1CN(S(=O)(=O)c2cccc(S(=O)(=O)N3CCC4CCC(C(=O)NC(c5ccccc5)c5ccccc5)N4C(=O)C(NC(=O)C(C)NC)C3)c2)CCC2CCC(C(=O)NC(c3ccccc3)c3ccccc3)N2C1=O", "> 7.50"],
  ["Cc1nc(N2CCC3(CC2)COC(C)C3N)c(CO)nc1Sc1ccnc(N)c1Cl (configuration not stated) + CNC(C)C(=O)NC1CN(S(=O)(=O)c2cccc(S(=O)(=O)N3CCC4CCC(C(=O)NC(c5ccccc5)c5ccccc5)N4C(=O)C(NC(=O)C(C)NC)C3)c2)CCC2CCC(C(=O)NC(c3ccccc3)c3ccccc3)N2C1=O", 7.81],
  ["NC1CCC(NC2CC2c2ccccc2)CC1 (configuration not stated) + Cc1c(S(C)(=O)=O)c(-c2cc(F)cc(N3CCN(c4ccc(NS(=O)(=O)c5ccc(NC(CCN6CCC(C(=O)OCCCP(=O)(O)O)CC6)CSc6ccccc6)c(S(=O)(=O)C(F)(F)F)c5)cc4)CC3)c2)c(-c2ccc(Cl)cc2)n1C(C)C", "> 9.50"],
  ["O=C(c1cc(Cc2n[nH]c(=O)c3ccccc23)ccc1F)N1CCN(C(=O)C2CC2)CC1 + Cc1c(S(C)(=O)=O)c(-c2cc(F)cc(N3CCN(c4ccc(NS(=O)(=O)c5ccc(NC(CCN6CCC(C(=O)OCCCP(=O)(O)O)CC6)CSc6ccccc6)c(S(=O)(=O)C(F)(F)F)c5)cc4)CC3)c2)c(-c2ccc(Cl)cc2)n1C(C)C", "> 7.50"],
  ["O=C(c1ccc(F)c(F)c1Nc1ccc(I)cc1F)N1CC(O)([C@@H]2CCCCN2)C1 + Cc1c(S(C)(=O)=O)c(-c2cc(F)cc(N3CCN(c4ccc(NS(=O)(=O)c5ccc(NC(CCN6CCC(C(=O)OCCCP(=O)(O)O)CC6)CSc6ccccc6)c(S(=O)(=O)C(F)(F)F)c5)cc4)CC3)c2)c(-c2ccc(Cl)cc2)n1C(C)C", "> 8.50"]
]}

Param item = O=C(c1cc(Cc2n[nH]c(=O)c3ccccc23)ccc1F)N1CCN(C(=O)C2CC2)CC1 + CNC(C)C(=O)NC1CN(S(=O)(=O)c2cccc(S(=O)(=O)N3CCC4CCC(C(=O)NC(c5ccccc5)c5ccccc5)N4C(=O)C(NC(=O)C(C)NC)C3)c2)CCC2CCC(C(=O)NC(c3ccccc3)c3ccccc3)N2C1=O ; retrieve measured pIC50.
> 7.50

Param item = NC(=O)C(=Cn1cnc(-c2cc(C(F)(F)F)cc(C(F)(F)F)c2)n1)c1cncnc1 + CNC(C)C(=O)NC1CN(S(=O)(=O)c2cccc(S(=O)(=O)N3CCC4CCC(C(=O)NC(c5ccccc5)c5ccccc5)N4C(=O)C(NC(=O)C(C)NC)C3)c2)CCC2CCC(C(=O)NC(c3ccccc3)c3ccccc3)N2C1=O ; retrieve measured pIC50.
7.82

* * *

Test system: Rh18 complex spheroid viability, percent test/control
method notes: Anticancer human tumor Rh18 cell line growth inhibition [Asc];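 also: spheroids exposed to compound for 7 days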;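 as to viability, T/C: 100% = DMSO vehicle control wells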
reported conditions: second compound 10 µM; first compound 0.1 µM; stronger effect = lower value
attribute measured: viability, T/C (%)
Report the figure in % without appending any unit label.

Study these solved cases before continuing.
{"columns": ["molecule", "target system", "attribute measured", "result unit", "measurement"],
 "data": [
  ["C=CC(=O)N1CCN(c2nc(=O)n(-c3c(C)ccnc3C(C)C)c3nc(-c4c(O)cccc4F)c(F)cc23)C(C)C1 (stereo not drawn) + Cc1c(S(C)(=O)=O)c(-c2cc(F)cc(N3CCN(c4ccc(NS(=O)(=O)c5ccc(NC(CCN6CCC(C(=O)OCCCP(=O)(O)O)CC6)CSc6ccccc6)c(S(=O)(=O)C(F)(F)F)c5)cc4)CC3)c2)c(-c2ccc(Cl)cc2)n1C(C)C", "Rh18 complex spheroid viability, percent test/control", "viability, T/C", "%", 5.72],
  ["COc1c(OCCCN2CCOCC2)ccc2c3n(c(=NC(=O)c4cnc(N)nc4)nc12)CCN3 + Cc1c(S(C)(=O)=O)c(-c2cc(F)cc(N3CCN(c4ccc(NS(=O)(=O)c5ccc(NC(CCN6CCC(C(=O)OCCCP(=O)(O)O)CC6)CSc6ccccc6)c(S(=O)(=O)C(F)(F)F)c5)cc4)CC3)c2)c(-c2ccc(Cl)cc2)n1C(C)C", "Rh18 complex spheroid viability, percent test/control", "viability, T/C", "%", 0.51]
]}

Then there is this molecule:
Param item = CNC(C)C(=O)NC1CN(S(=O)(=O)c2cccc(S(=O)(=O)N3CCC4CCC(C(=O)NC(c5ccccc5)c5ccccc5)N4C(=O)C(NC(=O)C(C)NC)C3)c2)CCC2CCC(C(=O)NC(c3ccccc3)c3ccccc3)N2C1=O (stereo not drawn) + Cc1c(S(C)(=O)=O)c(-c2cc(F)cc(N3CCN(c4ccc(NS(=O)(=O)c5ccc(NC(CCN6CCC(C(=O)OCCCP(=O)(O)O)CC6)CSc6ccccc6)c(S(=O)(=O)C(F)(F)F)c5)cc4)CC3)c2)c(-c2ccc(Cl)cc2)n1C(C)C ; retrieve measured viability, T/C.
3.4

* * *

Tested on: Rh18 complex spheroid viability, percent test/control
method notes: Anticancer human tumor Rh18 cell line growth inhibition [Asc];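 also: spheroids exposed to compound for 7 days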
reported conditions: curve of first compound; second compound 0.0949 µM
pIC50: −log10 of the molar value.
Readings of pIC50 for the listed molecules

{"columns": ["molecule", "pIC50"],
 "data": [
  ["O=C(c1ccc(F)c(F)c1Nc1ccc(I)cc1F)N1CC(O)([C@@H]2CCCCN2)C1 + CCN1C(C(=O)NC23CCC(C(=O)O)(CC2)CC3)C(c2cccc(Cl)c2F)C2(C(=O)Nc3cc(Cl)ccc32)C12CCCCC2", "> 8.50"]
]}

Under Rh18 complex spheroid viability, percent test/control: pIC50 value of COc1c(OCCCN2CCOCC2)ccc2c3n(c(=NC(=O)c4cnc(N)nc4)nc12)CCN3 + CCN1C(C(=O)NC23CCC(C(=O)O)(CC2)CC3)C(c2cccc(Cl)c2F)C2(C(=O)Nc3cc(Cl)ccc32)C12CCCCC2 ?
> 8.50

Under Rh18 complex spheroid viability, percent test/control: pIC50 value of C=CC(=O)N1CCN(c2nc(=O)n(-c3c(C)ccnc3C(C)C)c3nc(-c4c(O)cccc4F)c(F)cc23)C(C)C1 (stereo not given) + CCN1C(C(=O)NC23CCC(C(=O)O)(CC2)CC3)C(c2cccc(Cl)c2F)C2(C(=O)Nc3cc(Cl)ccc32)C12CCCCC2 ?
> 7.50

Under Rh18 complex spheroid viability, percent test/control: pIC50 value of NC1CCC(NC2CC2c2ccccc2)CC1 (stereo not given) + CCN1C(C(=O)NC23CCC(C(=O)O)(CC2)CC3)C(c2cccc(Cl)c2F)C2(C(=O)Nc3cc(Cl)ccc32)C12CCCCC2 ?
> 9.50

Under Rh18 complex spheroid viability, percent test/control: pIC50 value of Cc1nc(N2CCC3(CC2)COC(C)C3N)c(CO)nc1Sc1ccnc(N)c1Cl (stereo not given) + CCN1C(C(=O)NC23CCC(C(=O)O)(CC2)CC3)C(c2cccc(Cl)c2F)C2(C(=O)Nc3cc(Cl)ccc32)C12CCCCC2 ?
> 8.02
